System: Alopecurus myosuroides (ALOMY)
Assay: B. Herbicidal post-emergence efficacy, ALOMY
Format: in vivo
Conditions: 1280 g/ha, rated visually after about 3 weeks
The compounds listed here are annotated with their Post-emergence efficacy against ALOMY in %.
readout.kind: Post-emergence efficacy against ALOMY in % (%)

{"columns": ["compound", "scale.unit", "quantitative.result"],
 "data": [
  ["O=S(=O)(CCCC(F)(F)F)Oc1c(F)cccc1Oc1ncc(Br)cn1 [Example I-41]", "%", 90],
  ["O=S(=O)(CC1CC(F)(F)C1)Oc1c(F)cccc1Oc1ncc(Cl)cn1 [Example I-53]", "%", 90],
  ["O=S(=O)(CCC1CC1)Oc1c(F)cccc1Oc1ncc(Cl)cn1 [Example I-55]", "%", 90],
  ["O=S(=O)(CCCC(F)(F)F)Oc1c(F)cccc1Oc1ncc(Cl)cn1 [Example I-49]", "%", 90],
  ["O=S(=O)(CC1CC1)Oc1ccccc1Oc1ncc(Cl)cn1 [Example I-23]", "%", 90],
  ["O=S(=O)(CCC(F)(F)F)Oc1c(F)cccc1Oc1ncc(F)cn1 [Example I-47]", "%", 100],
  ["O=S(=O)(CCC(F)=C(F)F)Oc1c(Cl)cccc1Oc1ncc(Cl)cn1 [Example I-73]", "%", 90],
  ["O=S(=O)(CCCCl)Oc1ccccc1Oc1ncc(F)cn1 [Example I-5]", "%", 100],
  ["O=S(=O)(CCC(F)(F)F)Oc1c(Cl)cccc1Oc1ncc(Br)cn1 [Example I-32]", "%", 90],
  ["Cc1cccc(Oc2ncc(Cl)cn2)c1OS(=O)(=O)CC1CC(F)(F)C1 [Example I-74]", "%", 90],
  ["CCS(=O)(=O)Oc1ccccc1Oc1ncc(Cl)cn1 [Example I-16]", "%", 90],
  ["O=S(=O)(CCCCl)Oc1c(F)cccc1Oc1ncc(Cl)cn1 [Example I-14]", "%", 100],
  ["CCCS(=O)(=O)Oc1ccccc1Oc1ncc(Cl)cn1 [Example I-3]", "%", 90],
  ["O=S(=O)(CCCCl)Oc1ccccc1Oc1ncc(Cl)cn1 [Example I-2]", "%", 90],
  ["O=S(=O)(CCCC(F)(F)F)Oc1c(F)cccc1Oc1ncc(F)cn1 [Example I-42]", "%", 100],
  ["O=S(=O)(CCC(F)(F)F)Oc1c(F)cccc1Oc1ncc(Cl)cn1 [Example I-48]", "%", 90],
  ["Cc1cccc(Oc2ncc(F)cn2)c1OS(=O)(=O)CCCC(F)(F)F [Example I-46]", "%", 90],
  ["Cc1cccc(Oc2ncc(F)cn2)c1OS(=O)(=O)CCC(F)(F)F [Example I-45]", "%", 90]
]}
